- Study system: hGPR120 (Homo sapiens, UniProt Q5NUL3)
- Sequence (Q5NUL3 whole entry): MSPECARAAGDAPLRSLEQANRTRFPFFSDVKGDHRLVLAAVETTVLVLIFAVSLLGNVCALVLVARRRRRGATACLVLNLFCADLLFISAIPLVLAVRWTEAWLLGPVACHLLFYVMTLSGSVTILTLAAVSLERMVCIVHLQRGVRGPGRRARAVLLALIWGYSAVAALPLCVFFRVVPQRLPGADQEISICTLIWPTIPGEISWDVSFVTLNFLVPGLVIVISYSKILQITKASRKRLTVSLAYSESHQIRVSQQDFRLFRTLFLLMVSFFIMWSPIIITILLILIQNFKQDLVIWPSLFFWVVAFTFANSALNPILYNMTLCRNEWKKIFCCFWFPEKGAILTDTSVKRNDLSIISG
- Test description: Measurement of Activity of GPR120 Agonist (Cell-Based Assay), Calcium 5 dye fluorescence
- Condition parameters: CHO-K1 cells expressing Ga16 and hGPR120
Parameter measured: EC50

[in] Dear colleague, I am looking for the recorded EC50 of the following compound: CC(Cc1cc(O)no1)c1c(F)cc(-c2cccnc2OC2CCCC2)cc1F (stereo not drawn) [Example 88]
[out] < 200 nM

[in] Try this compound too: CC1(C)Cc2c(cccc2-c2cc(F)c(OCCCC(=O)O)c(F)c2)O1 [Example 291]
[out] < 200 nM

[in] Try this compound too: CC(CCCC(=O)O)c1c(F)cc(-c2cccnc2OC2COC2)cc1F (stereo not drawn) [Example 232]
[out] 200 to 2000 nM

[in] Try this compound too: O=C(O)CC1CCN(c2c(F)cc(-c3cccc(OC4CCC4)n3)cc2F)C1 (stereo not drawn) [Example 561]
[out] < 200 nM

[in] Try this compound too: O=C(O)CCC1CCc2cc(-c3cccnc3OC3CCC3)ccc2O1 (stereo not drawn) [Example 277]
[out] 200 to 2000 nM

[in] Try this compound too: O=C(O)CCCOc1c(F)cc(-c2cccc(OCC3CC3)n2)cc1Cl [Example 401]
[out] < 200 nM

[in] Try this compound too: O=C(O)CC1CN(c2c(F)cc(-c3cccnc3SC3CCCC3)cc2F)C1 [Example 112]
[out] < 200 nM

[in] Try this compound too: O=C(O)CC1CCN(c2c(F)cc(-c3cncc(NC4CCCC4)n3)cc2F)CC1 [Example 357]
[out] 200 to 2000 nM
